Where do the numbers come from? From ChEMBL document CHEMBL1933050.

# assayed_target: Prostaglandin D2 receptor 2 (Homo sapiens, UniProt Q9Y5Y4)
# Sequence (Q9Y5Y4 whole entry): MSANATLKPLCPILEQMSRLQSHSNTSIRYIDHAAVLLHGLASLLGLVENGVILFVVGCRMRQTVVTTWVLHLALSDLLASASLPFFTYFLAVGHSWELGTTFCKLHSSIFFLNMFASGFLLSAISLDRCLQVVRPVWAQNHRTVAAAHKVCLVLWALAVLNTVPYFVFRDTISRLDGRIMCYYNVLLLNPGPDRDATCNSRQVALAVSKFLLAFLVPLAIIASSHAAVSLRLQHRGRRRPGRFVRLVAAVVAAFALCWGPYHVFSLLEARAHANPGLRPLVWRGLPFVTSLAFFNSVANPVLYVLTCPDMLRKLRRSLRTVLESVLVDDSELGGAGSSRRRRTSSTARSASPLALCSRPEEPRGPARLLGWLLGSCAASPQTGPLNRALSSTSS
# protocol_description: Displacement of [3H]PGD2 from human CRTH2 receptor expressed in 293 cells by scintillation counting in presence of 0.5 % BSA
# Format: cell-based, HEK293
pIC50: −log10 of the molar value.
endpoint: pIC50

Solved entries:
{"molecular_string": "CCCCNC(=O)c1ccc(Oc2ccc(Cc3nnn[nH]3)cc2OC)c(NS(=O)(=O)c2ccc(Cl)cc2Cl)c1", "pIC50": 6.46}
{"molecular_string": "CCNC(=O)c1ccc(Oc2ccc(CC(=O)O)cc2OC)c(NC(=O)NCc2ccc(Cl)cc2)c1", "pIC50": 6.70}
{"molecular_string": "CCC(=O)Nc1ccc(Oc2cc(CC(=O)O)ccc2OC)c(C(=O)NCc2ccc(Cl)cc2)c1", "pIC50": 8.15}
{"molecular_string": "CCC(=O)Nc1ccc(Oc2cc(CC(=O)O)ccc2OC)c(C(=O)N[C@H](C)c2ccc(Cl)cc2)c1", "pIC50": 7.85}

P = CCC(=O)Nc1ccc(Oc2cc(CC(=O)O)ccc2OC)c(C(=O)N[C@@H](C)c2ccccc2)c1
Q = CCCCNC(=O)c1ccc(Oc2ccc(CC(=O)O)cc2OC)c(NCCc2ccccc2)c1
Lab note: check whether P or Q has the lower measured pIC50. Could you answer with the label of the item you picked? Q
